# Substrate: gfPET
# ASSAY METHOD TEXT: Proxy for plastic degradation [Released monomer concentration (HPLC/LC-MS) (TPA+MHET+BHET)]
# EXPERIMENTAL CONDITIONS: 60 °C
Below, each of the proteins is paired with its reported Proxy for plastic degradation value.

If you can, please state the reported Proxy for plastic degradation value of unnamed (protein) MANPYERGPDPTVQSIEAVRGPFSVSETNVSRLVVTGFGGGTIYYPRDTSQGTFGAVAIAPGFTASEGSMAWYGPRIASQGFVVFTIDTLTRLDQPDSRGRQLLAALDYLTQRSSVRSRIDSSRLAVMGHSMGGGGSLEASESRPSLKASIPLTPWNLKKNWRNNRVPTLIVGAENDSIASVRTHAEPFYESIPSTTNKAYLELNNATHFAPNISNTTIAKYSISWLKRFVDNDTRYEQFLCPPPRPDRDIEEYRCTCPY .
0.19 mmol/h

If you can, please state the reported Proxy for plastic degradation value of unnamed (protein) MANPYERGPNPTDALLEARSGPFSVSEENVSRLSASGFGGGTIYYPRENNTYGAVAISPGYTGTEASIAWLGERIASHGFVVITIDTITTLDQPDSRAEQLNAALNHMINRASSTVRSRIDSSRLAVMGHSMGGGGSLRLASQRPDLKAAIPLTPWHLNKNWSSVTVPTLIIGADLDTIAPVATHAKPFYNSLPSSISKAYLELDGATHFAPNIPNKIIGKYSVAWLKRFVDNDTRYTQFLCPGPRDGLFGEVEEYRSTCPF .
0.18 mmol/h

Now take the following protein into account.
If you can, please state the reported Proxy for plastic degradation value of unnamed (protein) MENPYERGPDPTTQSVEAARGPYAVSQITVGGQFGSYSGGTIYYPTSTADGKFGAVAIAPGFLSFQSSVAWLGPRIASQGFVVMTIDTGTIFDQPAQRGDQLLDALDFLTQRSSVKDRIDPNRLAVAGWSWGGGGSLEAAADRPSLKAAIPMAGWNLNTNWSRLTTPVLVVGVQNDLIAPVAMHSEPFYNSIRSEKAYLELAGGSHFTVTSANTPQAKLMISWLKRFVDNDTRYEQFICPGPSRGFSVSEYRSTCPY .
0.05 mmol/h

Cited source for all entries: the PETadex activity labels (doi:10.1002/cssc.202101062)
